For reference, the following Ki results for Carbonic anhydrase 9 (Homo sapiens) were taken from various sources.
Threshold 300 nM. Ki below it: 1. Ki at it or above: -1.

Completed entries (count: 5):
NS(=O)(=O)c1cnccc1Oc1ccncc1S(N)(=O)=O : 1
NS(=O)(=O)c1ccc(C2NCCc3cc(O)ccc32)cc1 (stereo unspecified) : 1
CN(C)c1ccc2c(-c3ccc(NC(=S)NCCOc4ccc(S(N)(=O)=O)cc4)cc3C(=O)O)c3ccc(=[N+](C)C)cc-3oc2c1 : 1
CC(C)(C)OC(=O)N(CCNC(=O)C(F)(F)F)CCN(CCNC(=O)C(F)(F)F)C(=O)OC(C)(C)C : -1
NS(=O)(=O)c1ccc(CN2C(=O)c3nccnc3C2=O)cc1 : 1

Criterion: Ki strictly below 300 nM. Is it met by "NS(=O)(=O)c1ccc2c(c1)C(=O)C(=O)N2Cc1cc(F)cc(F)c1" ?
-1

Please check: Ki for "NS(=O)(=O)c1ccc(C(=O)NNC(=O)Nc2ccc(Cc3ccccc3)cc2)cc1" , strictly under 300 nM or not?
1

I'd appreciate it if you could check whether "O=S1(=O)C=Cc2cc(Br)ccc2O1" has Ki smaller than 300 nM.
-1

# strict comparison: is reported Ki < 300 nM? input = "O=S1(=O)C=Cc2cc(-n3cc(-c4ccccc4)nn3)ccc2O1"
1

# strict comparison: is reported Ki < 300 nM? input = NS(=O)(=O)c1ccc(C(=O)N2CCc3cc(O)ccc3C2c2ccccc2)cc1 (single isomer, unassigned; enantiomer 2)
1

----------
# merged literature set: pKi with Carbonic anhydrase 9 (Homo sapiens, UniProt Q16790)
// returns pKi (minus log10 of molar concentration), number only

These recorded examples may help you get a feel for the data.
COc1ccc2nc(-c3ccccc3)cc(C(=O)Nc3ccc4c(c3)c(S(N)(=O)=O)cn4C)c2c1 : 4.35
COc1ccc(C[C@@H]2C[C@H]2CO)cc1OC : 5.06
NS(=O)(=O)c1ccc(NC2=NC(=O)CS2)cc1 : 8.35
CC(=O)O[C@@H]1O[C@H](COS(N)(=O)=O)[C@@H](OC(C)=O)[C@H](OC(C)=O)[C@@H]1OC(C)=O : 8.11

Report pKi for "NS(=O)(=O)c1ccc(CCn2c(=O)c3cc4c(=O)n(CCc5ccc(S(N)(=O)=O)cc5)c(=O)c4cc3c2=O)cc1" tested on Carbonic anhydrase 9 (Homo sapiens, UniProt Q16790).
5.69

Given the entry "NS(=O)(=O)c1cnccc1Oc1ccc(F)cc1" , what pKi was observed with Carbonic anhydrase 9 (Homo sapiens, UniProt Q16790)?
8.10

Test system Carbonic anhydrase 9 (Homo sapiens, UniProt Q16790); read-out pKi; what value for COc1ccc2c(c1)CCN(S(N)(=O)=O)C2c1ccc(C)cc1 (racemic) ?
8.12

Give Carbonic anhydrase 9 (Homo sapiens, UniProt Q16790) pKi for "NS(=O)(=O)c1ccc(C(=O)N2CCN(Cc3ccccc3)C[C@H]2CCO)cc1"
7.45

----------
# merged literature set: Ki with Carbonic anhydrase 9 (Homo sapiens, UniProt Q16790)

Illustrative cases are given below, each with its answer.
NS(=O)(=O)c1ccc(CCn2c(=O)c3ccccc3c3ccccc3c2=O)cc1 : 301 nM
NS(=O)(=O)c1ccc(-n2ncc(N3CCOCC3)cc2=O)cc1 : 2.1 nM
CC(=O)N1N=C(c2ccc(Cl)c(Cl)c2)CC1c1ccc(OS(N)(=O)=O)cc1 (stereo unspecified) : 7.7 nM

Any idea what Ki was measured for "NS(=O)(=O)c1ccc(-n2nnc(-c3nnc(SCC(=O)c4ccc(Br)cc4)[nH]3)c2-c2ccccc2)cc1" ?
177 nM

Data request, read-out Ki, for "NS(=O)(=O)c1ccc(-n2nc(C(=O)N/N=C3\C(=O)Nc4ccccc43)cc2-c2ccccc2)cc1"
8.8 nM

# lookup: Ki of "Cc1c(C(=O)NCCCN2CCN(C)CC2)cc(-c2ccc3ccccc3c2)n1-c1ccc(S(N)(=O)=O)cc1"
147 nM

Value lookup for Ki; key = "NS(=O)(=O)c1ccc(NC(=O)/C=C/c2ccc(F)cc2)cc1"
2.4 nM

Give its Ki value. Item: "O=C(S)NCCc1ccccc1"
21.5 nM

May I ask what Ki has been recorded for CCCOc1ccc2c(c1)CCN(C(=O)c1ccc(S(N)(=O)=O)cc1)C2c1ccccc1 (racemic) ?
44.5 nM

----------
// cross-study collection: log10 of Ki for Carbonic anhydrase 9 (Homo sapiens, UniProt Q16790)
Scale: decimal log of Ki, Ki in nM.

NS(=O)(=O)c1ccc(-n2nnc(CO)c2-c2cccs2)cc1 : 1.85

Tell me reported log10 of Ki for "NS(=O)(=O)c1ccc(-n2ncc(C(=O)N/N=C3\C(=O)Nc4ccc([N+](=O)[O-])cc43)c2-c2ccccc2)cc1" , tested with Carbonic anhydrase 9 (Homo sapiens, UniProt Q16790).
1.20

# get_value(readout= log10 of Ki, system= Carbonic anhydrase 9 (Homo sapiens, UniProt Q16790)) for CC(C(=O)NCCOc1ccc2oc(=O)ccc2c1)c1cccc(C(=O)c2ccccc2)c1 (racemic)
1.74

Hello, I am looking for reported log10 of Ki with Carbonic anhydrase 9 (Homo sapiens, UniProt Q16790) for "CCCCOc1nonc1S(N)(=O)=O" . Could you help?
0.68

# returns recorded log10 of Ki (system: Carbonic anhydrase 9 (Homo sapiens, UniProt Q16790)) for "COC(=O)C1=Cc2ccc3ccccc3c2OC(=O)C1"
2.48

Short answer please: log10 of Ki, Carbonic anhydrase 9 (Homo sapiens, UniProt Q16790), entry "NS(=O)(=O)c1ccc(/N=C/c2ccc(/C=N/c3ccc(S(N)(=O)=O)cc3)cc2)cc1"
2.97

Give Carbonic anhydrase 9 (Homo sapiens, UniProt Q16790) log10 of Ki for "NS(=O)(=O)c1ccc(C(=O)N2CCN(C(=O)c3ccc(F)cc3)CC2)cc1"
2.52

What log10 of Ki appears in the records for this molecule with Carbonic anhydrase 9 (Homo sapiens, UniProt Q16790)? "O=S1(=O)C=Cc2cc(-c3ccc(C(F)(F)F)cc3)ccc2O1"
1.47

Give the reported log10 of Ki for "NS(=O)(=O)c1ccc(/N=C/c2ccco2)c(F)c1" (system: Carbonic anhydrase 9 (Homo sapiens, UniProt Q16790)).
2.22

So what log10 of Ki did "NS(=O)(=O)c1ccc(C(=O)N2CCNC[C@@H]2CCO)cc1" get with Carbonic anhydrase 9 (Homo sapiens, UniProt Q16790)?
1.72

----------
This section presents log10(Ki) values reported for Carbonic anhydrase 9 (Homo sapiens, UniProt Q16790) in the literature.
Record value = log10 of Ki given in nM.

These recorded examples may help you get a feel for the data.
O=C(/C=C/c1ccc(O)cc1)C[C@@H]1O[C@H](CO)[C@H](O)[C@H](O)[C@H]1O : 3.91
COc1ccc(-c2nn(-c3nc4ccc(S(N)(=O)=O)cc4s3)cc2/C=N/O)cc1 : 1.96
Nc1ncnc2c1ncn2Cc1cn(-c2ccc(S(N)(=O)=O)cc2)nn1 : 0.28

Consider the molecule "CC(C)c1nc(SCC(=O)c2ccc(Br)cc2)nc(Nc2cccc(S(N)(=O)=O)c2)c1C#N" and give its measured log10(Ki).
1.99

GET /values?readout=log10(Ki)&item= "COc1ccc(NC(=O)c2ccc3c(c2)C(=O)N(Cc2ccccc2)C3=O)c(C(=O)O)c1"
4.62

// log10(Ki) lookup, key: COc1ccc(C2=NN(C(C)=O)C(c3ccc(OS(N)(=O)=O)cc3)C2)cc1 (stereo not drawn)
1.36

// lookup log10(Ki) for "COc1cc(OC)c(OC)cc1/C=C(\C#N)C(=O)Nc1ccc(S(N)(=O)=O)cc1"
-0.02

Fill in: log10(Ki) of "CC1CCN(CCCC(=O)Nc2ccc(S(N)(=O)=O)cc2)CC1" is ___
1.95

----------
Values of pKi for Carbonic anhydrase 9 (Homo sapiens, UniProt Q16790), collected from a number of published sources:
pKi: −log10 of the molar value.
Categories are defined by ranges of pKi, namely LOW = under 6, MID = from 6 up to 8, HIGH = 8 and over

CC1CCCN(C(=O)c2ccc(S(N)(=O)=O)cc2)C1 (stereo not given) : HIGH
C[C@@H]1OC(NS(=O)(=O)ON)C=C[C@H]1O (mixture of isomers) : MID
NNC(=O)c1nnn(-c2ccc(S(N)(=O)=O)cc2)c1-c1ccccn1 : LOW
O=C(O)CN1C(=O)c2ccccc2C1=O : MID
CCC(=O)OC[C@H]1O[C@@H](n2cc(-c3ccc(S(N)(=O)=O)cc3)nn2)[C@H](OC(=O)CC)[C@@H](OC(=O)CC)[C@@H]1OC(=O)CC : MID

Which bin should I file "Nc1nc(-c2ccc(NC(=O)CCNC(=O)c3cccc(S(N)(=O)=O)c3)cc2)cn2c(=O)n(-c3ccccc3)nc12" under?
LOW

Place this compound in its band: "O=c1ccc2ccc(CCc3ccccc3)cc2o1"
LOW

Form: Item = "Cc1cc(=O)oc2cc(NC(=O)NS(=O)(=O)c3ccccc3)ccc12" ; Class = ?
MID
